- Test system: Human immunodeficiency virus 1
- Assay Name: Antiviral activity against Human immunodeficiency virus 1 IIIB infected human MT4 cells assessed as inhibition of virus-induced cytopathic effect after 4 days by MTT assay
- Assay type: functional, organism-based
- Cond: MT4, 96 h

- Smiles Str: "O=C(COc1cccc2ccccc12)N/N=C/c1ccccc1"
  EC50: "> 96.6 µg/mL"
- Smiles Str: "C/C(=N\\NC(=O)COc1cccc2ccccc12)c1ccc(Cl)cc1"
  EC50: "> 4.07 µg/mL"
- Smiles Str: "O=C(COc1cccc2ccccc12)N/N=C/C=C/c1ccccc1"
  EC50: "> 62.7 µg/mL"
- Smiles Str: "C/C(=N\\NC(=O)COc1cccc2ccccc12)c1ccccc1O"
  EC50: "> 11.2 µg/mL"
- Smiles Str: "O=C(COc1cccc2ccccc12)N/N=C/c1ccc(Br)cc1"
  EC50: "> 106 µg/mL"
- Smiles Str: "O=C(COc1cccc2ccccc12)N/N=C/c1ccc(O)cc1"
  EC50: "> 26.5 µg/mL"
- Smiles Str: "C/C(=N\\NC(=O)COc1cccc2ccccc12)c1ccc(O)cc1"
  EC50: "> 68.8 µg/mL"
- Smiles Str: "C/C(=N\\NC(=O)COc1cccc2ccccc12)c1ccc(O)cc1O"
  EC50: "> 59.9 µg/mL"
- Smiles Str: "O=C(COc1cccc2ccccc12)N/N=C/c1cccc(Cl)c1"
  EC50: "> 89.9 µg/mL"
- Smiles Str: "C/C(=N\\NC(=O)COc1cccc2ccccc12)c1ccc([N+](=O)[O-])cc1"
  EC50: "> 89.3 µg/mL"
- Smiles Str: "Cc1cn([C@H]2C[C@H](N=[N+]=[N-])[C@@H](CO)O2)c(=O)[nH]c1=O"
  EC50: "0.002 µg/mL"
- Smiles Str: "COc1cc(/C=N/NC(=O)COc2cccc3ccccc23)cc(OC)c1O"
  EC50: "> 16.3 µg/mL"
- Smiles Str: "CCOc1ccc(/C=N/NC(=O)COc2cccc3ccccc23)cc1O"
  EC50: "> 6.23 µg/mL"
- Smiles Str: "COc1cc(/C=N/NC(=O)COc2cccc3ccccc23)cc(OC)c1OC"
  EC50: "> 13.4 µg/mL"
- Smiles Str: "O=C(COc1cccc2ccccc12)N/N=C/c1ccccc1[N+](=O)[O-]"
  EC50: "> 12.2 µg/mL"

---

- Tested on: Human immunodeficiency virus 1
- Assay Name: Antiviral activity against Human immunodeficiency virus 1 IIIB infected human MT4 cells assessed as inhibition of virus-induced cytopathic effect after 4 days by MTT assay
- Type: functional, organism-based
- Cond: MT4, 96 h
# EC50 listing for each entry below

- Smiles Str: "C/C(=N\\NC(=O)COc1cccc2ccccc12)c1ccccc1"
  EC50: "> 105 mg/L"
- Smiles Str: "O=C(COc1cccc2ccccc12)N/N=C/c1c[nH]c2ccccc12"
  EC50: "> 51.5 mg/L"
- Smiles Str: "COc1ccc(/C=N/NC(=O)COc2cccc3ccccc23)cc1O"
  EC50: "> 7.05 mg/L"
- Smiles Str: "CSc1ccc(/C=N/NC(=O)COc2cccc3ccccc23)cc1"
  EC50: "> 68.3 mg/L"
- Smiles Str: "COc1ccc(/C=N/NC(=O)COc2cccc3ccccc23)cc1"
  EC50: "> 76.9 mg/L"
- Smiles Str: "C/C(=N\\NC(=O)COc1cccc2ccccc12)c1ccccc1Br"
  EC50: "> 79.8 mg/L"
- Smiles Str: "C/C(=N\\NC(=O)COc1cccc2ccccc12)c1ccc(Br)cc1"
  EC50: "> 77.6 mg/L"
- Smiles Str: "O=C(COc1cccc2ccccc12)N/N=C/c1cccc(Br)c1"
  EC50: "> 87.4 mg/L"
- Smiles Str: "C/C(=N\\NC(=O)COc1cccc2ccccc12)c1ccc(C#N)cc1Br"
  EC50: "> 12.1 mg/L"
- Smiles Str: "O=C(COc1cccc2ccccc12)N/N=C/c1ccccc1O"
  EC50: "> 5.19 mg/L"
- Smiles Str: "O=C(COc1cccc2ccccc12)N/N=C/c1ccc(F)cc1"
  EC50: "> 65 mg/L"
